# tested-system: hGLP-1R (Homo sapiens, UniProt P43220)
# Sequence (P43220 24-463): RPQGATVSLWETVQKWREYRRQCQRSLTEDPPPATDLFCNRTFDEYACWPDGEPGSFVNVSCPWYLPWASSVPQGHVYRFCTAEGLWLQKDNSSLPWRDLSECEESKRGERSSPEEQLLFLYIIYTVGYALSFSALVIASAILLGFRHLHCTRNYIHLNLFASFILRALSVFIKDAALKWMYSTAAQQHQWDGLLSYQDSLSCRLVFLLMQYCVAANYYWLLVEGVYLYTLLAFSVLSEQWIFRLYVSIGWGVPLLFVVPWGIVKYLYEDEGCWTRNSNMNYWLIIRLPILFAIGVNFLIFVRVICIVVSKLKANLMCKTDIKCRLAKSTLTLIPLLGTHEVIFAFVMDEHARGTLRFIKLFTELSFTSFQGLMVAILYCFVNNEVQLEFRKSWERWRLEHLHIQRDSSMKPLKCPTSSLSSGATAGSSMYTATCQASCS
# run-description: cell-based or functional assay
Non-standard residues stand in square brackets, D forms with d. No end group written: not given here. NMeY = CN[C@@H](Cc1ccc(O)cc1)C(=O)O; αMeF = C[C@](N)(Cc1ccccc1)C(=O)O; Aib = CC(C)(N)C(=O)O
Classification scheme (cAMP Rel EC50 (1% HSA)): 1 = under 50 nM, 2 = from 50 nM up to 200 nM, 3 = 200 nM and over

Consider the worked cases shown below.
YXQGTFTSDXSQXLDXKAQXQFIEXLIAGGPSSGAPPPSGSEEE (Aib, 4Pal, Orn, Me4Pal, alpha-methyl-Tyr, lipidated Lys, amide; synthetic construct; SITE 2: note = 2-Aminoisobutyric Acid; SITE 10: note = 3-(4-Pyridyl)-L-alanine; SITE 13: note = alpha-methyl-leucine; SITE 16: note = L-ornithine; SITE 17: note = Lysine is chemically modified through conjugation of the epsilon-amino group of the Lysine side chain with D-Glutami) [Example 1081]	2
[NMeY][Aib]QGT[αMeF]TSDYSILLDKQAAKAFVQWLIEGGPSSGEPPPSEG-NH2 (not fully specified (residue 20)) [Example 302]	2

API: the following record is the query input.
Inquiry: # classify by cAMP Rel EC50 (1% HSA) band: YXQGTXTSDXXIXLDXKAQXXFIEYLLEGGPSSGEPPPSGTE (synthetic construct; SITE 2: note = 2-Aminoisobutyric Acid; SITE 6: note = alpha-methyl-2-fluoro-L-phenylalanine; SITE 10: note = 3-(4-Pyridyl)-L-alanine; SITE 11: note = alpha-methyl-L-serine; SITE 13: note = alpha-methyl-leucine; SITE 16: note = L-ornithine; SITE 17: note = Lysine is chemically mo) [Example 532]
Reply text: 1

These measurements were taken from patent US20240270821A1.
